target: BCL-XLΔC24 (labelled with the NHS RED NanoTemper labelling kit (MO-L001) for MST); experiment: MST; Monolith NT.115; protein labelled with NHS RED, unlabelled synthetic peptide diluted in phosphate-buffered saline; 30 min incubation; 25 °C; 40% LED and 40% MST power; three independent experiments, single binding model; conditions: both partners purified
Sequence (chain, as listed by the source mutant): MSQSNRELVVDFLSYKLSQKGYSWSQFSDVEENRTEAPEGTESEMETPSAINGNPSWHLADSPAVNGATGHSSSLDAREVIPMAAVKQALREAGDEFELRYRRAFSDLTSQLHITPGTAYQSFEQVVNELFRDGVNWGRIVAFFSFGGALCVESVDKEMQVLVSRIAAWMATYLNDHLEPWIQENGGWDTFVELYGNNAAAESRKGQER
Measurement name: pKd
Give bare numbers, as −log10 of the molar value.

(Q) Item under review: PSSTMGQVGRQLAIIGDDINRRYDSE (BH3 domain of BAK; also called BAK BH3 domain; source: synthetic peptide (Mimotopes, Australia, >90% purity)) [BAK BH3 peptide] . Reported pKd?
(A) 6.75
